Data origin, for the record: patent US5298494A

system: T lymphocytes (normal mouse spleen cells) stimulated with ConA; experiment: Mouse Spleen Cell ConA Blastogenesis Assay; type: cell-based, mouse (C57Bl/6); conditions: Mus musculus, T-lymphocyte, ConA 1 ug/ml; compound 100 ug/ml; read-out: % change from control, ConA blastogenic response
# inhibition at 100 µg/mL values compiled below

# compound, inhibition at 100 µg/mL
rows = [
    ("CN1CCCC1CCNC[C@H]1OC(C)(C)O[C@@H]2[C@H]3OC(C)(C)O[C@H]3O[C@@H]21 (stereo partly drawn)", "91%"),
    ("CCCCCCCOCCCO[C@@H]1[C@H]2OC(C)(C)O[C@H]2O[C@@H]1[C@H](O)CO", "67%"),
    ("CCCCCCCOC[C@H]1O[C@@]2(OC)COC(C)(C)O[C@H]2[C@@H]1O", "99%"),
    ("CCCCCCCC(=O)O[C@@H]1[C@@H](CO)O[C@@]2(OC)COC(C)(C)O[C@@H]12", "74%"),
    ("CC1(C)OC2OC3C(CSCCN4CCCC4)OC(C)(C)OC3C2O1 (stereo not drawn)", "11%"),
    ("CCCCCCCC(=O)OC[C@H]1O[C@@]2(OC)COC(C)(C)O[C@H]2[C@@H]1OC(=O)CCCCCCC", "100%"),
    ("CCCCC/C=C/COC[C@H]1O[C@@]2(OC)COC(C)(C)O[C@H]2[C@@H]1OC/C=C/CCCCC", "100%"),
    ("CCCCCCCCCCCCOC1C(C(O)CO)OC2OC(C)(C)OC21 (stereo not drawn)", "100%"),
    ("CCCCCCCOC[C@H]1O[C@](COCC)(OC)[C@@H](OCC)[C@@H]1O", "99%"),
    ("CCCCC/C=C\\COC[C@H]1O[C@@]2(OC)COC(C)(C)O[C@H]2[C@@H]1OC/C=C\\CCCCC", "4%"),
    ("CCCCCCCO[C@@H]1[C@@H](CO)O[C@@]2(OC)COC(C)(C)O[C@@H]12", "100%"),
    ("CC1(C)OC2OC(C(O)COCCCc3ccccc3)C(O)C2O1 (stereo not drawn)", "99%"),
    ("CCCCCCCSC[C@H]1OC(C)(C)O[C@@H]2[C@H]3OC(C)(C)O[C@H]3O[C@@H]21", "84%"),
    ("CCCCC/C=C\\COC[C@H]1O[C@](COC/C=C\\CCCCC)(OC)[C@@H](O)[C@@H]1O", "99%"),
    ("CCCCCCCO[C@@H]1[C@@H](CO)O[C@@]2(CO)OC(C)(C)O[C@@H]12", "100%"),
]
